- SYSTEM NAME: JAK2 (JH1 domain-catalytic, Y1007F, Y1008F) kinase (Homo sapiens (Human), UniProt O60674, Y1007F/Y1008F)
- Sequence (O60674 849-1124 Y1007F/Y1008F): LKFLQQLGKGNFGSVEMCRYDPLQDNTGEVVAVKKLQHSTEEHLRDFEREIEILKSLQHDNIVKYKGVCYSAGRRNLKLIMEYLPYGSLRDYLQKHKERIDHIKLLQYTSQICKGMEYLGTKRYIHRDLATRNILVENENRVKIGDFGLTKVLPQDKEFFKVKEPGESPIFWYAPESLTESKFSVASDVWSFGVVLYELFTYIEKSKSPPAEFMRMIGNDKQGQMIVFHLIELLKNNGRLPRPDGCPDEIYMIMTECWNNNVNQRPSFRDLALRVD
- TEST: JAK2 JH1 Domain Binding Assay
- ASSAY CONTEXT: qPCR readout
pKd: −log10 of the molar value.
TEST READOUT: pKd

Study these solved cases before continuing.
CN(C(=O)Nc1cc(C(C)(C)C)n([C@H]2CCOC2)n1)C1CCN(c2cnc3[nH]ncc3c2)CC1 | > 8.00
Cn1cc(C(F)(F)F)cc(NC(=O)N2CCO[C@H]3CN(c4cnc5[nH]ccc5n4)CC[C@@H]32)c1=O | 7.30 to 8.00
CN(C(=O)Nc1cc(C(F)(F)F)cn(C)c1=O)C1CCN(c2cnc3[nH]cnc3c2)CC1 | 7.30 to 8.00
C[C@@H]1C[C@H](N(C)C(=O)Nc2cc(C(C)(C)C)n([C@H]3C[C@H](O)C3)n2)CCN1c1cnc2[nH]ncc2c1 | 7.30 to 8.00
COCc1cc2nc(N3CC[C@@H](N(C)C(=O)Nc4cc(C(F)(F)F)cn(C)c4=O)C(F)(F)C3)cnc2[nH]1 | > 8.00

Record `CN(C(=O)Nc1cc(C(F)(F)F)cn(C)c1=O)C1CCN(c2cnc3[nH]ccc3c2)CC1` . Reported pKd: > 8.00

Record CN(C(=O)Nc1cc(C(F)(F)F)cn(C)c1=O)[C@H]1CCN(c2cnc3[nH]n(C)c(=O)c3c2)CC1F (stereo in doubt) . Reported pKd: 7.30 to 8.00

Record `CC(=O)Nc1cnc(N2CCC(N(C)C(=O)Nc3cc(C)cc(C(F)(F)F)c3)CC2)cn1` . Reported pKd: > 8.00

Record `CN(C(=O)Nc1cc(C(F)(F)F)cn(C)c1=O)C1CCN(c2cnc3[nH]n(C4CCOCC4)c(=O)c3c2)CC1` . Reported pKd: 7.30 to 8.00

Record `CN(C(=O)Nc1cc(C(F)(F)F)cn(C)c1=O)C12CC(c3cnc4[nH]ncc4c3)(C1)C2` . Reported pKd: > 8.00

Record `CO[C@@H]1CN(c2cnc3[nH]nc(N(C)C)c3c2)CC[C@H]1N(C)C(=O)Nc1cc(C(F)(F)F)cn(C)c1=O` . Reported pKd: 7.30 to 8.00
